Measured koff, listed per entry for reference.
Molecular target: T1, human CD22-Fc fusion protein (human, UniProt P20273 20-687, limits assumed)
T1 construct: also called recombinant CD22-Fc fusion protein; not shown: Fc part
T1 sequence (looked up): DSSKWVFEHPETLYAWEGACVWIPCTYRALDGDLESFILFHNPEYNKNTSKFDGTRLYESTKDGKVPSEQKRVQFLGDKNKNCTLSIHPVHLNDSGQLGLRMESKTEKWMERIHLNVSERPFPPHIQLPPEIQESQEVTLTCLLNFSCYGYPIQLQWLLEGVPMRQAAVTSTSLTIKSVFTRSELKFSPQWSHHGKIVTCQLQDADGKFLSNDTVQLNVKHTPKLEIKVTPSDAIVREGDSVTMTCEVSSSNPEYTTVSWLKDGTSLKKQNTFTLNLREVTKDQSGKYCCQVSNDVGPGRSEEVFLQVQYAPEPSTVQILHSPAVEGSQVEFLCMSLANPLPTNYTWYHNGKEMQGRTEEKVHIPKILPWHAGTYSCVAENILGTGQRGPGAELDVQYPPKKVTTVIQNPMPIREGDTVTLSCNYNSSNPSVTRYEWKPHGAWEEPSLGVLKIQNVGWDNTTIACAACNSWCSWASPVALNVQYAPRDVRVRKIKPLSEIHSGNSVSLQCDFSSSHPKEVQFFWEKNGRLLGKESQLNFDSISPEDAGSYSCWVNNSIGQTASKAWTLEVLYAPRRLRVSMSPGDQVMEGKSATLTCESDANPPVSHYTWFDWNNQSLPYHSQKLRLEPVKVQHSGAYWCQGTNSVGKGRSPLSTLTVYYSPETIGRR
Experiment: SPR Biacore T200; CD22-Fc captured on Protein G chip, scFv as analyte;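 also: run in 1×HBST buffer, with the response of reference flow cell 1 subtracted from the CD22 capture cell and kinetics fitted in Biacore T200 evaluation software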

EP35-F7 scFv (scFv, also called EP35-F07; not shown: C-terminal flag and 6xHIS tag) scFv: EVQLVQSGGGVVQPGRSLRLSCAASGFTFSSYGMHWVRQAPGKGLEWVAVIWYDGSNKYYADSVKGRFTISRDNSKNTLYLQMNSLRAEDTAVYYCARDGWKGFDYWGQGTTVTVSSGGGGSGGGGSGGGGSEIVLTQSPATLSVSPGEGVTLSCRASQSVSSNLAWYQQRPGQAPRLLIYGASIKATDVPDRFSGGGSGTDFTLSISNLQSEDFAVYYCQQYHTWPPVTFGGGTKVEIK ... 0.00098 s⁻¹
EP97-F01 scFv (scFv, VH-VL orientation; not shown: C-terminal flag and 6xHIS tag) scFv: QVQLVQSGAEVKKPGASVKVSCKASGYTFTSYGISWVRQAPGQGLEWMGWISAYNGNTNYAQKLQGRVTMTTDTSTSTAYMELRSLRSDDTAVYYCARDHIAAAGDYWGQGTLVTVSSGGGGSGGGGSGGGGSEIVMTQSPATLSVSPGEGVTLSCRASQSVSSNLAWYQQRPGQAPRLLIYGASIKATDVPDRFSGGGSGTDFTLSITNLQSEDFAVYYCQQYHTWPPVTFGGGTKVEIK ... 0.000195 s⁻¹
EP160-E03 scFv (scFv, VH-VL orientation; not shown: C-terminal flag and 6xHIS tag) scFv: EVQLVQSGGGVVQPGKSLRLSCAASGFTFSSYGMHWVRQAPGKGLEWVAVIWYDGSNKYYADSVKGRFTISRDNSKNTLYLQMNSLRAEDTAVYYCARDGWTGFDYWGQGTTVTVSSGGGGSGGGGSGGGGSEIVLTQSPATLSVSPGEGVTLSCRASQSVSSNLAWYQQRPGQAPRLLIYGASIKATDVPDRFSGGGSGTDFTLSISNLQSEDFAVYYCQQYHTWPPVTFGGGTKVEIK ... 0.00164 s⁻¹
EP97-A10 scFv (scFv, VH-VL orientation; not shown: C-terminal flag and 6xHIS tag) scFv: QVQLVQSGAEVKRPGASVKVSCKASGYTFTSYGISWVRQAPGQGLEWMGWISAYNGNTNYAQKLQGRVTMTTDTSTSTAYMELRSLRSDDTAVYYCARDPGIAVAGTVDYWGQGTLVTVSSGGGGSGGGGSGGGGSEIVMTQSPATLSVSPGEGVTLSCRASQSVSSNLAWYQQRPGQAPRLLIYGASIKATDVPDRFSGGGSGTDFTLSISNVQSEDFAVYYCQQYHTWTPVTFGGGTKVEIK ... 0.000145 s⁻¹

Read the next record carefully.
**Query** If you can, please state the reported koff value of EP160-H02 scFv (scFv, VH-VL orientation; not shown: C-terminal flag and 6xHIS tag) scFv: QVQLVQSGAEVKKPGASVKVSCKASGYTFTSYGISWVRQAPGQGLEWMGGIIAYNGNTNYAQKLQGRVTMTTDTSTSTAYMELRSLRSDDTAVYYCARDPPEYSSSAGTDYWGQGTLVTVSSGGGGSGGGGSGGGGSEIVMTQSPATLSVSPGEGVTLSCRASQSVSSNLAWYQQRPGQAPRLLIYGASIKATDVPDRFSGGGSGTDFTLSITNLQSEDFAVYYCQQYHTWSPVTFGGGTKVEIK .
**Result** 0.000112 s⁻¹
